Please respond with reported pIC50 for every item in the list.
- MEASUREMENT_DESCRIPTION: Inhibition of Metallo-beta-lactamase VIM-1 (unknown origin)
- Set-up: species or system Bacteria
pIC50 is a log-scale quantity: -log10 of the concentration expressed in molar.

Ask: Consider the molecule shown here: O=C(O)c1cccc2c1OB(O)C(NC(=O)C1CCCCC1)C2 (configuration not stated) What is its recorded pIC50?
Result: 6.00

Ask: Again, but for NCc1ccc(C(=O)NC2Cc3cccc(C(=O)O)c3OB2O)cc1 (configuration not stated)
Result: 7.21

---

Please respond with reported pIC50 for every item in the list.
- MEASUREMENT_DESCRIPTION: Inhibition of beta-lactamase SHV-12 (unknown origin)
- Design: species or system Bacteria
pIC50 is a log-scale quantity: -log10 of the concentration expressed in molar.

Ask: Consider the compound shown here: "O=C(Cc1cccs1)N[C@@H](Cn1cc(-c2cccc(C(=O)O)c2)nn1)B(O)O" What is its recorded pIC50?
Result: 6.85

Ask: Again, but for "O=C(Cc1cccs1)N[C@H](B(O)O)c1cccc(C(=O)O)c1"
Result: 7.40

---

- MEASUREMENT_DESCRIPTION: Inhibition of bacterial beta-lactamase KPC-2 expressed in Escherichia coli BL21 (DE3) using nitrocefin as substrate assessed as inhibition constant by Cheng-Prusoff equation analysis
- Parameters: species or system Bacteria
ENDPOINT: Ki (nM)
Just the number please, in nM, no unit attached.

Ask: Consider the compound shown here: "[N-]=[N+]=NCc1cccc(B(O)O)c1" What is its recorded Ki?
Result: 830

Ask: Again, but for "OB(O)c1cc(-n2cc(-c3ccsc3)nn2)c(F)cc1F"
Result: 1840

Ask: Again, but for "[N-]=[N+]=Nc1cccc(B(O)O)c1"
Result: 450

Ask: Again, but for "OB(O)c1cccc(Cn2cc(-c3ccsc3)nn2)c1"
Result: 32

Ask: Again, but for "COc1ccc(-c2cn(Cc3ccc(B(O)O)cc3)nn2)cc1"
Result: 227

Ask: Again, but for "OB(O)c1cccc(Cn2cc(C3CC3)nn2)c1"
Result: 515

Ask: Again, but for "OB(O)c1cccc(Cn2cc(-c3cccs3)nn2)c1"
Result: 67

Ask: Again, but for "O=C(O)c1cn(Cc2cccc(B(O)O)c2)nn1"
Result: 1020

Ask: Again, but for "OB(O)c1cccc(Cn2cc(-c3cccnc3)nn2)c1"
Result: 480

Ask: Again, but for "OB(O)c1ccc(Cn2cc(-c3cccs3)nn2)cc1"
Result: 275

Ask: Again, but for "OB(O)c1cc(-n2cc(-c3ccsc3)nn2)cc(F)c1F"
Result: 5900

Ask: Again, but for "OB(O)c1ccc(Cn2cc(-c3ccccc3)nn2)cc1"
Result: 323

Ask: Again, but for "[N-]=[N+]=NCc1ccc(B(O)O)cc1"
Result: 493

---

- System: Escherichia coli
- MEASUREMENT_DESCRIPTION: microbe, parasite or virus in culture
- Format: functional
- ASSAY_SETUP: BL21 (DE3), dose 5 µg/ml, time 16-20 hrs
ENDPOINT: MIC

Ask: Consider the compound shown here: "[N-]=[N+]=Nc1cccc(B(O)O)c1" What is its recorded MIC?
Result: ≤ 0.06 µg/mL

Ask: Again, but for "[N-]=[N+]=NCc1ccc(F)c(B(O)O)c1"
Result: ≤ 0.06 µg/mL

Ask: Again, but for "OB(O)c1cc(Cn2cc(-c3ccsc3)nn2)ccc1F"
Result: ≤ 0.06 µg/mL

Ask: Again, but for "OB(O)c1cccc(-n2cc(-c3ccsc3)nn2)c1"
Result: 0.25 µg/mL

Ask: Again, but for "O=C(Nc1cccc(B(O)O)c1)c1ccsc1"
Result: 0.12 µg/mL

Ask: Again, but for "OB(O)c1cc(-n2cc(-c3ccsc3)nn2)c(F)cc1F"
Result: ≤ 0.06 µg/mL

Ask: Again, but for "OB(O)c1cccc(Cn2cc(-c3ccsc3)nn2)c1"
Result: ≤ 0.06 µg/mL

Ask: Again, but for "[N-]=[N+]=Nc1cc(B(O)O)c(F)cc1F"
Result: ≤ 0.06 µg/mL

Ask: Again, but for "OB(O)c1cc(-n2cc(-c3ccsc3)nn2)ccc1F"
Result: 0.12 µg/mL

Ask: Again, but for "OB(O)c1cccc(Cn2cc(-c3cccs3)nn2)c1"
Result: ≤ 0.06 µg/mL

Ask: Again, but for "[N-]=[N+]=Nc1ccc(F)c(B(O)O)c1"
Result: 1 µg/mL

Ask: Again, but for "O=C(O)c1cn(Cc2cccc(B(O)O)c2)nn1"
Result: 2 µg/mL

Ask: Again, but for "[N-]=[N+]=NCc1cccc(B(O)O)c1"
Result: ≤ 0.06 µg/mL
